System: Cytochrome P450 2D6 (Homo sapiens, UniProt P10635) | Read-out: IC50 | Origin: multiple publications
Sequence (P10635 whole entry): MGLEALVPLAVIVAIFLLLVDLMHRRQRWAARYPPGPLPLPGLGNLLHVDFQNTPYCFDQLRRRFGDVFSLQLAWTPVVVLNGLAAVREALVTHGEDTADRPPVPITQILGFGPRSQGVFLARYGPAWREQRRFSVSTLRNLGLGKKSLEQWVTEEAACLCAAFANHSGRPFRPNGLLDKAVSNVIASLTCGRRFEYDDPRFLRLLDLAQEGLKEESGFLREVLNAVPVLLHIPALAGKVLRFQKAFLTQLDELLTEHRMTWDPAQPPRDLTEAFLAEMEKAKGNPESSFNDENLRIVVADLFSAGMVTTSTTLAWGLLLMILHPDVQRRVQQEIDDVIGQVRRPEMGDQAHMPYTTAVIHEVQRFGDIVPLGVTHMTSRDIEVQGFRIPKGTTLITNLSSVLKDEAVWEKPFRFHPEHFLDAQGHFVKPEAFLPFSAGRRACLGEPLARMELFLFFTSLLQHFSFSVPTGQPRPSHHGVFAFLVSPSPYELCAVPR

In the examples that follow, each entry is paired with its recorded IC50.
smiles_repr=Cc1noc(-c2ccc(NS(=O)(=O)c3cc(Cl)cc(Cl)c3)cc2)n1 assay_system="Cytochrome P450 2D6 (Homo sapiens, UniProt P10635)" observed_result="> 27 µM"
smiles_repr=C[C@H](Oc1ccc(S(C)(=O)=O)cc1C(=O)N1Cc2ccc(Cl)cc2C1)C(F)(F)F assay_system="Cytochrome P450 2D6 (Homo sapiens, UniProt P10635)" observed_result="> 38 µM"
smiles_repr=Cc1cn2c(-c3cn[nH]c3)cnc2c(Nc2cc(Cc3ccccn3)ns2)n1 assay_system="Cytochrome P450 2D6 (Homo sapiens, UniProt P10635)" observed_result="> 20 µM"
smiles_repr=O=C(C1CCN(Cc2ccncc2)CC1)N1CCC(n2c(=O)n(CCN3CCCCC3)c3ccccc32)CC1 assay_system="Cytochrome P450 2D6 (Homo sapiens, UniProt P10635)" observed_result="3.7 µM"

Q: Name the reported IC50 value associated with the molecule C=CC(=O)N[C@H]1COC[C@H]1Nc1ncc(OCc2c(F)c(OC)cc(OC)c2F)cn1
Ans: > 50 µM

----------
Several reports have described IC50 for Cytochrome P450 2D6 (Homo sapiens); a selection of those results is presented here.
property_name: IC50 (µM)

Answered examples (3):
molecule=COc1ccc(CCN2C(=O)N(NS(C)(=O)=O)C[C@H]2c2ccc(OC)cc2)cc1 property_name=IC50 observed_result=180
molecule=CCc1ccccc1N(CC(=O)NCc1ccc(Cl)cc1)S(=O)(=O)c1ccc(C)cc1 property_name=IC50 observed_result=100
molecule=COc1ccc(S(=O)(=O)NCCCNc2cc(-c3cn(C(C)(C)C)nc3-c3cccc(O)c3)ccn2)cc1 property_name=IC50 observed_result=0.0267

P. COc1cccc2nc(CCCN(C)CC[C@]3(OC(=O)C(C)C)C[C@H]4CCC[C@@H]3c3ccccc34)[nH]c12
Q. COc1ccc(CC(C)(C)NCC(O)COc2ccccc2C#N)cc1 (racemic)
R. O=C(Nc1ccc(Oc2ccc(F)cc2)cc1)[C@@H]1C[C@@H](c2ccccc2)CN1C(=O)Cc1cnc[nH]1
S. O=C(c1cc2cc(Cl)ccc2[nH]1)N1C[C@]2(CCN(C3CCNC3)C2)c2ccccc21 (some centres undefined)
T. COc1cc(N2Cc3cn(-c4cccc(S(C)(=O)=O)c4)nc3[C@H]2C(C)C)cc(C)n1
Q: Sequence the entries by IC50, beginning with the highest number. Thanks in advance for listing the labels in the requested order.
Ans: T, P, R, Q, S
(T: 25.7 µM, P: 1.4 µM, R: 0.663 µM, Q: 0.036 µM, S: 0.014 µM)

----------
What follows is literature data on IC50 for Cytochrome P450 2D6 (Homo sapiens, UniProt P10635).

Examples with their reported IC50 follow.
molecule=C[C@H]1c2cccc(C(N)=O)c2C(=O)N1C1CCN(C2CCCCC2)CC1 observed_result="> 31 µM"
molecule=CCc1cc(-c2ccc3c(c2)-c2nnc(Nc4cccc(C(F)(F)F)c4)n2CCO3)ccn1 observed_result="2.34 µM"

Q: Consider the molecule shown here: N#Cc1cccc(-c2ccc3ncc(-c4cc(F)cc(F)c4)c(N4CCC(N)CC4)c3c2)c1O What is its recorded IC50?
Ans: > 10 µM

Q: Which IC50 value is on record for CCCS(=O)(=O)c1ccc2[nH]c(-c3cccn(-c4ccccc4)c3=O)nc2c1 ?
Ans: > 20 µM

Q: Consider the molecule shown here: CN(CC(O)(CNC(=O)c1cnn(-c2ccc(F)cc2)c1N)C(F)(F)F)C(=O)c1c(F)cccc1F (racemic) What is its recorded IC50?
Ans: 36 µM
